# protocol.summary: Half life in dog hepatocytes
# Format: ADME, cell-based, Canis lupus familiaris, Hepatocyte
observation.type: half-life (h)
Enter your answer as a number in h; do not include the unit.

For reference, reported half-life for COc1cc(-c2cn(C3CCc4c(F)cccc4N(CC(F)(F)F)C3=O)nn2)ccc1-n1cnc(C)c1 (stereo unspecified) stands at 1.12

----------
# assay.system: Voltage-gated inwardly rectifying potassium channel KCNH2 (Homo sapiens)
# Sequence (Q12809 whole entry): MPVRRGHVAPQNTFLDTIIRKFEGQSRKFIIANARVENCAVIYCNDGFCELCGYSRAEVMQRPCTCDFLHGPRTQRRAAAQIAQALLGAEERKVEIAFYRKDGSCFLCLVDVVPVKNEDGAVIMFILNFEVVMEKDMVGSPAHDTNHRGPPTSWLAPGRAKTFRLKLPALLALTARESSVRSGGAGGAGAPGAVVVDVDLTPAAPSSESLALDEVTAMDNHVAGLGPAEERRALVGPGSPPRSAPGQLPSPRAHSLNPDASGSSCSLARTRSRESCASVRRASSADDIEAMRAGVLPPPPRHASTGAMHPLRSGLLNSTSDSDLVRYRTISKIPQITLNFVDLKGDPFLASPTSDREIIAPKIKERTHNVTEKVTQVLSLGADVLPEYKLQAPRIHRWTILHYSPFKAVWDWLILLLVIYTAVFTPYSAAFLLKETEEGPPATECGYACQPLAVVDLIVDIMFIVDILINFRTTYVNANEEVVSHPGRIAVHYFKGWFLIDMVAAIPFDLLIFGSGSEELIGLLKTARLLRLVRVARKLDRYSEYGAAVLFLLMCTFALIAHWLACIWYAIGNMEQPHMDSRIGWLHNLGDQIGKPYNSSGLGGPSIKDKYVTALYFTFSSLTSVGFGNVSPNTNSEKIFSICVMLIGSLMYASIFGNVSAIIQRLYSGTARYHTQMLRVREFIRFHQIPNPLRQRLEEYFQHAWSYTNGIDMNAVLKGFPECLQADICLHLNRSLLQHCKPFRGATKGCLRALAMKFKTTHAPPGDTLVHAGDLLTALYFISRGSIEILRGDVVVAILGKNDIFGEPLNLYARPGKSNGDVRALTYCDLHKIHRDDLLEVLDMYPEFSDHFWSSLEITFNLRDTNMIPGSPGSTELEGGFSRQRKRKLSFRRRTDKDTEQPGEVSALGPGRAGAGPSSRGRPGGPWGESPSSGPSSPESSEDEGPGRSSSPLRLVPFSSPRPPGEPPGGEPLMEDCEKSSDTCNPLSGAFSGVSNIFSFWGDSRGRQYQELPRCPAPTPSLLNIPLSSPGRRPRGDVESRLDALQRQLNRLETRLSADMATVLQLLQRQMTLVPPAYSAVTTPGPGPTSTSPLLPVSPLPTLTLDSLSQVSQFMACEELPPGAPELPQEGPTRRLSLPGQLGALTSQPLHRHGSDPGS
# protocol.summary: Inhibition of human ERG expressed in HEK cells assessed as reduction in IKr current by patchXpress assay
# Assay type: cell-based, HEK293
observation.type: IC50 (µM)
Enter your answer as a number in µM; do not include the unit.

For reference, reported IC50 for COc1cc(-c2cn(C3CCc4c(F)cccc4N(CC(F)(F)F)C3=O)nn2)ccc1-n1cnc(C)c1 (stereo unspecified) stands at 12.9
